Data origin, for the record: patent US12448389B2

The entries below are paired with their reported Dmax.
- Assay target: SMARCA2-HiBiT (Homo sapiens, UniProt P51531)
- Construct: SMARCA2-HiBiT knock-in Hela monoclonal cell (CS302366); host or cells: HeLa monoclonal knock-in line (CRISPR HiBiT knock-in at the endogenous locus, heterozygous)
- Sequence (P51531 whole entry): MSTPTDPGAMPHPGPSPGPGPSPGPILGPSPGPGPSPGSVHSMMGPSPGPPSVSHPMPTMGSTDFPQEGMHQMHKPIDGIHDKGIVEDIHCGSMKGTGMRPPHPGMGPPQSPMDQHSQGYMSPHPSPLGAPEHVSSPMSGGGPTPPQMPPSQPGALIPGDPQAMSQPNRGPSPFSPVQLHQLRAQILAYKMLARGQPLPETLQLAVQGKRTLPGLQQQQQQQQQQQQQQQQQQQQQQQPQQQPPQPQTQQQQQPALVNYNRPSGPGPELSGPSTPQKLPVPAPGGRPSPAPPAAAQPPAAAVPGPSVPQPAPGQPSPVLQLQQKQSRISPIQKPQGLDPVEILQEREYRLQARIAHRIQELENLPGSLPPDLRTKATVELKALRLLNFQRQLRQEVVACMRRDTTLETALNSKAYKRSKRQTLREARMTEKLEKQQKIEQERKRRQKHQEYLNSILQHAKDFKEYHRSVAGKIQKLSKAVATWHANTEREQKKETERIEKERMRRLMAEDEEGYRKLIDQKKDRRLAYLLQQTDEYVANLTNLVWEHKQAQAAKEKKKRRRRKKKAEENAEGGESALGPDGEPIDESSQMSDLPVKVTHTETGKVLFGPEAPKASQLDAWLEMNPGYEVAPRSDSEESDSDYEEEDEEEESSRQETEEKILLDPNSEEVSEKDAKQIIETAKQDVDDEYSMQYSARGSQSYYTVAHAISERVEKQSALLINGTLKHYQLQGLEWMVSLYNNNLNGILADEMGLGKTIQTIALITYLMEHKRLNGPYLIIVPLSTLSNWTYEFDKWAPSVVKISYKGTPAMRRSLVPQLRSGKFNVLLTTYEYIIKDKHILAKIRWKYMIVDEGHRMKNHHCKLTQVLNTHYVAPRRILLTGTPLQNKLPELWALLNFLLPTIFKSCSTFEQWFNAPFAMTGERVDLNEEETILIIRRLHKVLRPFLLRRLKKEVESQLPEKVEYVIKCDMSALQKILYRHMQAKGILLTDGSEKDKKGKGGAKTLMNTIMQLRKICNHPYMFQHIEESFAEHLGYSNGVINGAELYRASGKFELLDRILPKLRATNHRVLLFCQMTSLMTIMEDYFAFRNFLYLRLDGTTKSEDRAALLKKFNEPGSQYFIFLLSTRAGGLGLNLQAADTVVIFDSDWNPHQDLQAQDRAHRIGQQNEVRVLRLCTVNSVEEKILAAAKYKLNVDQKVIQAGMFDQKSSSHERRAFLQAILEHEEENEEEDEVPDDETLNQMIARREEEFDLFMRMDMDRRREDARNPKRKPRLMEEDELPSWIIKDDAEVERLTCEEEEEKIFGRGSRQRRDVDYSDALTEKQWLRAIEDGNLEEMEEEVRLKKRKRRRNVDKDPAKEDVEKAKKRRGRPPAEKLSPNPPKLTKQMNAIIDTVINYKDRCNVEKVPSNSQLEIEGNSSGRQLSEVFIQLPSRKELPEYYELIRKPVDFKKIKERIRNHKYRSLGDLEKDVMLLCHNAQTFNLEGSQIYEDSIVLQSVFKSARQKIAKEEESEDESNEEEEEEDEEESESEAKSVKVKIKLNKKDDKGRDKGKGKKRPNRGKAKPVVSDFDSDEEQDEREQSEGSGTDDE
- Test protocol: SMARCA2 HiBiT degradation assay in HeLa cells
- Format: cell-based
- Condition parameters: HeLa, 18 hours incubation, read-out: HeLa-HiBit-SM2 Dmax (%)

// known answers, use as guide
compound="O=C1CCC(N2C(=O)c3ccc(N4CCC(CN5CC(CN6CCN7c8cc(-c9ccccc9O)nnc8NC[C@H]7C6)C5)CC4)cc3C2=O)C(=O)N1 (some centres unmarked) [Example 36]" assay_target="SMARCA2-HiBiT (Homo sapiens, UniProt P51531)" measured_endpoint=Dmax result="> 85%"
compound="O=C1CCC(N2C(=O)c3ccc(OC4CCN(CC5CCN(CCN6CCN7c8cc(-c9ccccc9O)nnc8NC[C@H]7C6)CC5)CC4)cc3C2=O)C(=O)N1 (some centres unmarked) [Example 216]" assay_target="SMARCA2-HiBiT (Homo sapiens, UniProt P51531)" measured_endpoint=Dmax result="> 85%"
compound="CCC1CN(CC2CCN(c3ccc4c(c3)C(=O)N(C3CCC(=O)NC3=O)C4)CC2)CCN1C(=O)N1CCN2c3cc(-c4ccccc4O)nnc3NC[C@H]2C1 (some centres unmarked) [Example 270]" assay_target="SMARCA2-HiBiT (Homo sapiens, UniProt P51531)" measured_endpoint=Dmax result="> 85%"
compound="O=C1CCC(N2Cc3cc(CN4CCC(N5CCC(N6CCN7c8cc(-c9ccccc9O)nnc8NC[C@H]7C6)CC5)CC4)ccc3C2=O)C(=O)N1 (some centres unmarked) [Example 63]" assay_target="SMARCA2-HiBiT (Homo sapiens, UniProt P51531)" measured_endpoint=Dmax result="> 85%"
compound="CN(C1CCN(CC2CCN(c3ccc4c(c3)C(=O)N(C3CCC(=O)NC3=O)C4=O)CC2)CC1)C1C[C@@H]2CNc3nnc(-c4ccccc4O)cc3N2C1 (some centres unmarked) [Example 29]" assay_target="SMARCA2-HiBiT (Homo sapiens, UniProt P51531)" measured_endpoint=Dmax result="> 85%"
compound="CC(CN1CCC(N2CCN3c4cc(-c5ccccc5O)nnc4NC[C@H]3C2)CC1)Oc1ccc2c(c1)CN([C@@H]1CCC(=O)NC1=O)C2=O (some centres unmarked) [Example 214]" assay_target="SMARCA2-HiBiT (Homo sapiens, UniProt P51531)" measured_endpoint=Dmax result="75 to 85%"
compound="O=C1CCC(N2C(=O)c3ccc(N4CCN(C(=O)OCCN5CCC(N6CCN7c8cc(-c9ccccc9O)nnc8NC[C@H]7C6)CC5)CC4)cc3C2=O)C(=O)N1 (some centres unmarked) [Example 223]" assay_target="SMARCA2-HiBiT (Homo sapiens, UniProt P51531)" measured_endpoint=Dmax result="75 to 85%"
compound="O=C1CCC(N2C(=O)c3ccc(N4[C@@H]5CC[C@H]4CC(CN4CCC(CN6CCN7c8cc(-c9ccccc9O)nnc8NC[C@H]7C6)CC4)C5)cc3C2=O)C(=O)N1 (some centres unmarked) [Example 180]" assay_target="SMARCA2-HiBiT (Homo sapiens, UniProt P51531)" measured_endpoint=Dmax result="75 to 85%"

# input compound: O=C1CCC(N2C(=O)c3cccc(N4CCC(CCCN5CCC(N6CCN7c8cc(-c9ccccc9O)nnc8NC[C@H]7C6)C(F)C5)CC4)c3C2=O)C(=O)N1 (some centres unmarked) [Example 73] ; wanted: its Dmax 75 to 85%

# input compound: O=C1CCC(N2C(=O)c3ccc(N4CCC(N[C@H]5C[C@@H](CN6CCN7c8cc(-c9ccccc9O)nnc8NC[C@H]7C6)C5)CC4)cc3C2=O)C(=O)N1 (some centres unmarked) [Example 76] ; wanted: its Dmax > 85%

# input compound: O=C1CCC(N2C(=O)c3ccc(N4CC(CN5CCC(CN6CCN7c8cc(-c9ccccc9O)nnc8NC[C@H]7C6)CC5)C(F)(F)C4)cc3C2=O)C(=O)N1 (some centres unmarked) [Example 191] ; wanted: its Dmax 50 to 75%
